- Target Of Assay: farnesyl transferase (Homo sapiens, UniProt P49354+P49356)
- Construct: This enzyme has been partially purified from human THP1 cells; endogenous in cells
- Method Summary: test for inhibition of farnesyl transferase by scintillation proximity assay (SPA)
- Applied Conditions: partially purified Ftase from human THP1 cells, 60 minutes at 37° C., BLB and 3H FPP substrates

{"Compound": "CC(C)C1CCC2C1(C)CCC1(C)C3=CCC4C(C)(C(=O)O)C(O)C(O)C(O)C4(COP(=O)(O)O)C3CCC21C (stereo not shown)", "IC50": "0.83 µM"}
